Origin of values: patent US9650372B2

# Tested on: Cabbage Looper (Trichoplusia ni, TRIPNI)
# Procedure Summary: Bioassay on Cabbage Looper (CL), 128-well diet tray assay
# Assay type: in vivo
# Experimental Setup: 168 h, 50 μg/cm^2 on artificial diet, second instar larvae, 25° C., five to seven days, average of eight wells, read-out: CL % Control (or Mortality) rating
Listed molecules paired with reported mortality at 50 µg/cm2

# annotated cases, reported mortality at 50 µg/cm2 shown
1) Cc1ccc(C(C)C)c(N2C(=O)CS/C2=N\C(=O)Nc2ccc(-c3ncn(CCc4ccc(OC(F)(F)F)cc4)n3)cc2)c1 [Molecule F1]
50 to 100%
2) CC(C)c1ccccc1N1C(=O)CS/C1=N\C(=O)Nc1ccc(-c2ncn(CCCC(F)(F)C(F)(F)F)n2)cc1 [Molecule F2]
50 to 100%
3) CC(C)c1ccccc1N1C(=O)CS/C1=N\C(=O)Nc1ccc(-c2ncn(CCCCC(F)(F)F)n2)cc1 [Molecule F4]
50 to 100%
4) CC(C)c1ccccc1N1C(=O)CS/C1=N\C(=O)Nc1ccc(-c2ncn(CCC(F)(F)C(F)(F)C(F)(F)F)n2)cc1 [Molecule F5]
50 to 100%

Form: molecule = CC(C)c1ccccc1N1C(=O)CS/C1=N\C(=O)Nc1ccc(-c2ncn(Cc3ccc(C(F)(F)F)cc3)n2)cc1 [Molecule F3] ; mortality at 50 µg/cm2 = 50 to 100%
